Here the recorded pIC50 is given for each entry.
Target: UniProt P23945
Sequence (P23945 18-695): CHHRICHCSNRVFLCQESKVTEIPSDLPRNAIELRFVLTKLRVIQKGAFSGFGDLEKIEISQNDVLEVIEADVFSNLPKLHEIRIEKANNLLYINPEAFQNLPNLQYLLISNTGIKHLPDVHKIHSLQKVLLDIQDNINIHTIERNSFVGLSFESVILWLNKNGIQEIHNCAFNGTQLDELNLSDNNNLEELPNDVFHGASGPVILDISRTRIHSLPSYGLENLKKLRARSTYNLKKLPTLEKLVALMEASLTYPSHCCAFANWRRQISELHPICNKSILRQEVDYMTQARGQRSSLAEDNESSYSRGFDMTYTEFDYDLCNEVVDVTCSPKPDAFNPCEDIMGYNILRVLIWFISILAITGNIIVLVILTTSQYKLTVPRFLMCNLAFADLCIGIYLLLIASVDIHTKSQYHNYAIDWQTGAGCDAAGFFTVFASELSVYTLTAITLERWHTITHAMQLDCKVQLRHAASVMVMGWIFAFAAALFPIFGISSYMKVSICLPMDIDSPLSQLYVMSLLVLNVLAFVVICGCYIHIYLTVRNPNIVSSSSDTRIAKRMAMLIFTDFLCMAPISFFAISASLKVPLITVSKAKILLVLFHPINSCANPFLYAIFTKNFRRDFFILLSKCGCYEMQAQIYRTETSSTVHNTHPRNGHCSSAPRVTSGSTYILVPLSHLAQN
Test: cAMP accumulation (RIA) in CHO-3D2 cells (hFSH-R), hFSH-induced
Details: inhibition of cAMP accumulation induced by hFSH at EC20, CHO-3D2 cells
pIC50: −log10 of the molar value.
measure: pIC50

# compound, measure, measurement
records = [
    ("NCc1ccccc1-c1ccc(C(=O)N2Cc3ccc(C(=O)NCc4cccnc4)n3Cc3ccccc32)cc1", "pIC50", 6.43),
    ("Cc1cc(C(=O)N2Cc3ccc(C(=O)NCc4cccnc4)n3Cc3ccccc32)ccc1-c1ccccc1C(C)O (stereo not shown)", "pIC50", 6.52),
    ("COc1ccccc1-c1ccc(C(=O)N2Cc3ccc(C(=O)NCc4cccnc4)n3Cc3ccccc32)cc1", "pIC50", 6.30),
    ("CC(C)C(=O)c1ccccc1-c1ccc(C(=O)N2Cc3ccc(C(=O)NCc4cccnc4)n3Cc3ccccc32)cc1", "pIC50", 6.37),
    ("Cc1cc(C(=O)N2Cc3ccc(C(=O)NCc4cccnc4)n3Cc3ccccc32)ccc1-c1ccccc1Cl", "pIC50", 6.00),
    ("O=C(NCc1cccnc1)c1ccc2n1Cc1ccccc1N(C(=O)c1ccc(-c3ccccn3)cc1)C2", "pIC50", 6.70),
    ("CC(C)c1ccccc1-c1ccc(C(=O)N2Cc3ccc(C(=O)NCc4cccnc4)n3Cc3ccccc32)cc1", "pIC50", 6.48),
]

---

target: hFSH-R (Homo sapiens, UniProt P23945); assay: cAMP accumulation (RIA) in CHO-3D2 cells (hFSH-R), hFSH-induced; conditions: inhibition of cAMP accumulation induced by hFSH at EC20, CHO-3D2 cells
pIC50: −log10 of the molar value.

# molecule, boundType, pIC50
measured = [
    ("Cc1cc(C(=O)N2Cc3ccc(C(=O)NCc4cccnc4)n3Cc3ccccc32)ccc1-c1ccccc1 [Example 57]", "=", 6.15),
    ("CN(C)C(=O)Cc1ccccc1-c1ccc(C(=O)N2Cc3ccc(C(=O)NCc4cccnc4)n3Cc3ccccc32)cc1 [Example 40]", "=", 6.49),
    ("CN(C)c1ccc(C(=O)N2Cc3ccc(C(=O)NCc4cccnc4)n3Cc3ccccc32)cc1 [Example 84]", "=", 5.92),
    ("CC(=O)c1ccccc1-c1ccc(C(=O)N2Cc3ccc(C(=O)NCc4cccnc4)n3Cc3ccccc32)cc1C [Example 29]", "=", 6.40),
    ("O=C(NCc1cccnc1)c1ccc2n1Cc1ccccc1N(C(=O)c1ccc(-c3ccccc3)cc1)C2 [Example 13]", "=", 6.15),
    ("O=Cc1ccccc1-c1ccc(C(=O)N2Cc3ccc(C(=O)NCc4cccnc4)n3Cc3ccccc32)cc1 [Example 56]", "=", 6.05),
    ("COc1ccc(CNc2ccc(C(=O)N3Cc4ccc(C(=O)NCc5cccnc5)n4Cc4ccccc43)cn2)cc1 [Example 122]", "<", 4.52),
]

---

target: hFSH-R (Homo sapiens); assay: cAMP accumulation (RIA) in CHO-3D2 cells (hFSH-R), hFSH-induced; settings: inhibition of cAMP accumulation induced by hFSH at EC20, CHO-3D2 cells
molecules and their reported IC50
measure: IC50 (nM)

# molecule, targetEntity, measure, measurement
measured = [
    ("COCc1ccccc1-c1ccc(C(=O)N2Cc3ccc(C(=O)NCc4cccnc4)n3Cc3ccccc32)cc1C", "hFSH-R (Homo sapiens)", "IC50", 100),
    ("COc1ccccc1-c1ccc(C(=O)N2Cc3ccc(C(=O)NCc4cccnc4Oc4ccccc4)n3Cc3ccccc32)cc1", "hFSH-R (Homo sapiens)", "IC50", 700),
    ("CN(C)Cc1ccccc1-c1ccc(C(=O)N2Cc3ccc(C(=O)NCc4cccnc4)n3Cc3ccccc32)cc1", "hFSH-R (Homo sapiens)", "IC50", 780),
    ("Cc1ccccc1-c1ccc(C(=O)N2Cc3ccc(C(=O)NCc4cccnc4)n3Cc3ccccc32)cc1", "hFSH-R (Homo sapiens)", "IC50", 800),
    ("O=C(NCc1cccnc1)c1ccc2n1Cc1ccccc1N(C(=O)c1ccc(-c3ccccc3CN3CCCCC3)cc1)C2", "hFSH-R (Homo sapiens)", "IC50", 1710),
    ("O=C(NCc1cccnc1)c1ccc2n1Cc1ccccc1N(C(=O)c1ccc(-c3ccccc3/C=N/O)cc1)C2", "hFSH-R (Homo sapiens)", "IC50", 550),
    ("O=C(NCc1cccnc1)c1ccc2n1Cc1ccccc1N(C(=O)c1ccc(-c3ccccc3CO)cc1)C2", "hFSH-R (Homo sapiens)", "IC50", 60),
    ("Cc1cc(C(=O)N2Cc3ccc(C(=O)NCc4cccnc4)n3Cc3ccccc32)ccc1-c1cccs1", "hFSH-R (Homo sapiens)", "IC50", 400),
    ("COc1ccccc1-c1ccc(C(=O)N2Cc3ccc(C(=O)NCc4cccnc4)n3Cc3ccccc32)cc1C", "hFSH-R (Homo sapiens)", "IC50", 200),
    ("O=C(NCc1cccnc1)c1ccc2n1Cc1ccccc1N(C(=O)c1ccc(-n3cccn3)cc1)C2", "hFSH-R (Homo sapiens)", "IC50", 1300),
    ("Cc1cc(C(=O)N2Cc3ccc(C(=O)NCc4cccnc4)n3Cc3ccccc32)ccc1-c1ccc(Cl)cc1", "hFSH-R (Homo sapiens)", "IC50", 1600),
    ("O=C(c1ccccc1)c1ccc(C(=O)N2Cc3ccc(C(=O)NCc4cccnc4)n3Cc3ccccc32)cc1", "hFSH-R (Homo sapiens)", "IC50", 21000),
    ("COC(=O)Cc1ccccc1-c1ccc(C(=O)N2Cc3ccc(C(=O)NCc4cccnc4)n3Cc3ccccc32)cc1", "hFSH-R (Homo sapiens)", "IC50", 20),
    ("Cc1ccccc1-c1ccc(C(=O)N2Cc3ccc(C(=O)NCc4cccnc4)n3Cc3ccccc32)cc1C", "hFSH-R (Homo sapiens)", "IC50", 80),
    ("CSc1ccccc1-c1ccc(C(=O)N2Cc3ccc(C(=O)NCc4cccnc4)n3Cc3ccccc32)cc1 [Example 14, HYDRATE]", "hFSH-R (Homo sapiens)", "IC50", 770),
]

---

Counter-ions that a name gives are not always drawn.
Reported melting point values are given for each entry in this list.

# compound, melting point
rows = [
    ("COC(=O)c1ccc(C(=O)N2Cc3ccc(C(=O)NCc4cccnc4)n3Cc3ccccc32)cc1", "170 to 172 °C"),
    ("O=C(NCc1cccnc1)c1ccc2n1Cc1ccccc1N(C(=O)c1ccc(-c3ccncc3)cc1)C2", "119 to 124 °C"),
    ("O=C(NCc1cccnc1)c1ccc2n1Cc1ccccc1N(C(=O)CSc1ccc(Br)cc1)C2 (as salt: hydrochloride) (hydrate or solvate)", "136 to 137 °C"),
    ("CCC(O)c1ccccc1-c1ccc(C(=O)N2Cc3ccc(C(=O)NCc4cccnc4)n3Cc3ccccc32)cc1 (stereo not drawn)", "111 to 115 °C"),
    ("O=C(NCc1cccnc1)c1ccc2n1Cc1ccccc1N(C(=O)/C=C/c1ccccc1)C2", "175 °C"),
    ("O=C(NCc1cccnc1)c1ccc2n1Cc1ccccc1N(C(=O)Cc1ccc(Cl)cc1)C2", "83 °C"),
    ("COCc1ccccc1-c1ccc(C(=O)N2Cc3ccc(C(=O)NCc4cccnc4)n3Cc3ccccc32)cc1C", "163 to 164 °C"),
    ("CC(C)(C)OC(=O)c1ccccc1-c1ccc(C(=O)N2Cc3ccc(C(=O)NCc4cccnc4)n3Cc3ccccc32)cc1", "163 to 165 °C"),
    ("Cc1cc(C(=O)N2Cc3ccc(C(=O)NCc4cccnc4)n3Cc3ccccc32)ccc1-c1ccccc1", "108 to 112 °C"),
    ("O=C(O)c1ccccc1-c1ccc(C(=O)N2Cc3ccc(C(=O)NCc4cccnc4)n3Cc3ccccc32)cc1", "189 to 191 °C"),
    ("COC(=O)c1ccccc1-c1ccc(C(=O)N2Cc3ccc(C(=O)NCc4cccnc4)n3Cc3ccccc32)cc1", "179.5 to 180.5 °C"),
    ("O=C(NCc1cccnc1)c1ccc2n1Cc1ccccc1N(C(=O)c1ccc(-c3ccccc3CO)cc1)C2", "119 to 121 °C"),
    ("Cc1ccccc1-c1ccc(C(=O)N2Cc3ccc(C(=O)NCc4ccc[n+]([O-])c4)n3Cc3ccccc32)cc1C", "170 to 173 °C"),
    ("O=C(NCc1cccnc1)c1ccc2n1Cc1ccccc1N(C(=O)c1ccc(-c3ccccc3CN3CCCC3)cc1)C2", "210 to 212 °C"),
    ("CC(Oc1ccccc1)C(=O)N1Cc2ccc(C(=O)NCc3cccnc3)n2Cc2ccccc21 (stereo not drawn)", "83 °C"),
    ("Cc1ccccc1-c1ccc(C(=O)N2Cc3ccc(C(=O)NCc4cccnc4)n3Cc3ccccc32)cc1C", "148 to 150 °C"),
    ("O=C(NCc1cccnc1)c1ccc2n1Cc1ccccc1N(C(=O)c1cccc(F)c1)C2", "101 °C"),
    ("O=C(NCc1cccnc1)c1ccc2n1Cc1ccccc1N(C(=O)c1cc(F)cc(F)c1)C2", "138 to 140 °C"),
]
